Listing of recorded activity coefficient by entry.
experiment: activity coefficient (dimensionless); of the first substance listed, at infinite dilution; xn = mol fraction of the nth substance listed; conditions: 323 K; 101 kPa; Liquid; Chromatography; x1 = 0
Keep the answer to the number alone.

Example entries and their recorded answers appear below.
ClC=C(Cl)Cl [trichloroethene] + CCCCCCCC[n+]1ccn(C)c1.F[B-](F)(F)F	1.67
CCCCCCC [heptane] + CCn1cc[n+](C)c1.F[B-](F)(F)F	173
ClC(Cl)(Cl)Cl [tetrachloromethane] + CCCCn1cc[n+](C)c1.F[B-](F)(F)F	5.5
c1ccccc1 [benzene] + CCCCCCCC[n+]1ccn(C)c1.F[B-](F)(F)F	1.29
ClC(Cl)(Cl)Cl [tetrachloromethane] + CCCCCCn1cc[n+](C)c1.F[B-](F)(F)F	3.3
C=CCCCC [hex-1-ene] + CCCCCCn1cc[n+](C)c1.F[B-](F)(F)F	14.8
C1CCCCC1 [cyclohexane] + CCCCCCCC[n+]1ccn(C)c1.F[B-](F)(F)F	7.99
CCOCC [diethyl ether] + CCCCCCCC[n+]1ccn(C)c1.F[B-](F)(F)F	3.2
ClC(Cl)Cl [trichloromethane] + CCCCn1cc[n+](C)c1.F[B-](F)(F)F	1.13
CO [methanol] + CCn1cc[n+](C)c1.F[B-](F)(F)F	0.43

In: # lookup: activity coefficient of CCCO [propan-1-ol] + CCCCCCCC[n+]1ccn(C)c1.F[B-](F)(F)F
Out: 1.44

In: Given C=CCCCC [hex-1-ene] + CCCCn1cc[n+](C)c1.F[B-](F)(F)F , state its recorded activity coefficient.
Out: 32.2

In: Given CCCCCCC [heptane] + CCCCn1cc[n+](C)c1.F[B-](F)(F)F , state its recorded activity coefficient.
Out: 115

In: Could you tell me which activity coefficient is on file for CC(C)=O [acetone] + CCCCn1cc[n+](C)c1.F[B-](F)(F)F ?
Out: 1.05

---

assay: activity coefficient (dimensionless); of the first substance listed, at infinite dilution; xn = mol fraction of the nth substance listed; details: 343 K; 101 kPa; Liquid; Chromatography; x1 = 0
MEASUREMENT_TYPE: activity coefficient
Enter the number alone.

In: Reported activity coefficient for ClCCCl [1,2-dichloroethane] + CCn1cc[n+](C)c1.F[B-](F)(F)F : what is it?
Out: 1.37

In: Which activity coefficient is reported for this compound? CCc1ccccc1 [ethylbenzene] + CCn1cc[n+](C)c1.F[B-](F)(F)F
Out: 6.87

In: Bench note: what activity coefficient did ClCCCl [1,2-dichloroethane] + CCCCCCCC[n+]1ccn(C)c1.F[B-](F)(F)F show?
Out: 0.95

In: Find the recorded activity coefficient belonging to CCCO [propan-1-ol] + CCn1cc[n+](C)c1.F[B-](F)(F)F and report it.
Out: 0.87

In: Suppose we examine the compound Cc1ccccc1 [toluene] + CCCCCCCC[n+]1ccn(C)c1.F[B-](F)(F)F ; what activity coefficient value has been reported?
Out: 1.82

In: What value of measured activity coefficient is listed for C=CCCCC [hex-1-ene] + CCCCCCCC[n+]1ccn(C)c1.F[B-](F)(F)F ?
Out: 7.42

In: I have this compound here, CCCO [propan-1-ol] + CCCCn1cc[n+](C)c1.F[B-](F)(F)F , and I need its recorded activity coefficient.
Out: 2.28

Values compiled from the NIST ThermoML archive (doi:10.1021/je050544m).
